Entry source: patent US9469650B2

Listed here are molecules together with their documented Percent Growth.
tested on: SF-268; test: panel of 60 human tumor cell lines, growth inhibition (CNS Cancer); details: SF-268; Log10 Concentration −8.0
Give the quantity in %, number only.

[[record]]
chemical_string = "C=C1C(=O)O[C@H]2[C@H]1CC/C(COC(=O)N1CCN(C)CC1)=C\\CC[C@@]1(C)O[C@@H]21"
measure_unit = "%"
val = 99

[[record]]
chemical_string = "C=C1C(=O)O[C@H]2[C@H]1CC/C(COC(=O)CCC(=O)N1CCC(C)CC1)=C\\CC[C@@]1(C)O[C@@H]21"
measure_unit = "%"
val = 100

[[record]]
chemical_string = "C=C1C(=O)O[C@H]2[C@H]1CC/C(COC(=O)NCCc1ccccn1)=C\\CC[C@@]1(C)O[C@@H]21"
measure_unit = "%"
val = 106


Tell us which Percent Growth value is on record for C=C1C(=O)O[C@H]2[C@H]1CC/C(COC(=O)NC)=C\CC[C@@]1(C)O[C@@H]21
92
